# Test system: up to 32 different microorganisms
# PROCEDURE DETAILS: in vitro antibacterial activity (MIC), agar dilution on Brain Heart Infusion (BHI) agar with Steers replicator
# Assay type: cell-based
# ASSAY CONDITIONS: Micrococcus luteus ATCC 9341 (code OO); unit assumed
PROPERTY: log10 of MIC (log10 of the value in µg/mL)

COMPOUND	TARGET SYSTEM	log10 of MIC
CCC1OC(=O)C(C)C(=O)C(C)C(OC2OC(C)CC(N(C)C)C2O)C(C)(OCC=Cc2cccc3cccnc23)CC(C)C(=O)C(C)C2NC(=O)OC12C (stereo not drawn) [Example 189, R is —CH2CH-(8-quinolyl)]	up to 32 different microorganisms	-1.70
CCC1OC(=O)C(C)C(=O)C(C)C(OC2OC(C)CC(N(C)C)C2O)C(C)(OCC=Cc2cnc3ccc(Cl)cc3c2)CC(C)C(=O)C(C)C2NC(=O)OC12C (stereo not drawn) [Example 191, R is —CH2CH═CH-(6-chloro-3-quinolyl)]	up to 32 different microorganisms	-2.00
CCC1OC(=O)C(C)C(=O)C(C)C(OC2OC(C)CC(N(C)C)C2O)C(C)(OCC=Cc2cccnc2)CC(C)C(=O)C(C)C2NC(=O)OC12C (stereo not drawn) [Example 185, R is —CH2CH═CH-(3-pyridyl)]	up to 32 different microorganisms	-2.00
CC[C@H]1OC(=O)[C@H](C)C(=O)[C@H](C)[C@@H](O[C@@H]2O[C@H](C)C[C@H](N(C)C)[C@H]2O)[C@@](C)(OCCCc2ccccc2)C[C@@H](C)C(=O)[C@H](C)[C@H]2OC(=O)O[C@@]21C [Example 73]	up to 32 different microorganisms	-1.00
C=CCO[C@@]1(C)C[C@@H](C)C(=O)[C@H](C)[C@H]2NC(=O)O[C@]2(C)[C@@H](CC)OC(=O)[C@H](C)C(=O)[C@H](C)[C@H]1O[C@@H]1O[C@H](C)C[C@H](N(C)C)[C@H]1O [Example 102]	up to 32 different microorganisms	-0.70
C=CCO[C@@]1(C)C[C@@H](C)C(=O)[C@H](C)[C@H]2N(C)C(=O)O[C@]2(C)[C@@H](CC)OC(=O)[C@H](C)C(=O)[C@H](C)[C@H]1O[C@@H]1O[C@H](C)C[C@H](N(C)C)[C@H]1O [Example 179]	up to 32 different microorganisms	0.19
CC[C@H]1OC(=O)[C@H](C)C(=O)[C@H](C)[C@@H](O[C@@H]2O[C@H](C)C[C@H](N(C)C)[C@H]2O)[C@@](C)(OCCCc2cnc3ccccc3c2)C[C@@H](C)C2=NCCN3C(=O)O[C@@]1(C)[C@H]3[C@H]2C [Example 171]	up to 32 different microorganisms	-2.00
CC[C@H]1OC(=O)[C@H](C)C(=O)[C@H](C)[C@@H](O[C@@H]2O[C@H](C)C[C@H](N(C)C)[C@H]2O)[C@@](C)(OCC=Cc2cnc3ccccc3c2)C[C@@H](C)C(=O)[C@H](C)[C@H]2N(C)C(=O)O[C@]12C [Example 180]	up to 32 different microorganisms	-1.70
CC[C@H]1OC(=O)[C@H](C)C(=O)[C@H](C)[C@@H](O[C@@H]2O[C@H](C)C[C@H](N(C)C)[C@H]2O)[C@@](C)(OCCCc2ccccc2)C[C@@H](C)C(=O)[C@H](C)[C@@H](O)[C@]1(C)O [Example 15]	up to 32 different microorganisms	-0.11
